// reported total protein half-life in vivo for each item listed
test: total protein half-life in vivo (active degradation + dilution); higher = more stable protein; conditions: wild type E. coli NCM3722; growth: N-lim chemostat; doubling time 12 h
REPORTED_PROPERTY: total protein half-life in vivo (h)

[[record]]
residue_sequence = "MSSYANHQALAGLTLGKSTDYRDTYDASLLQGVPRSLNRDPLGLKADNLPFHGTDIWTLYELSWLNAKGLPQVAVGHVELDYTSVNLIESKSFKLYLNSFNQTRFNNWDEVRQTLERDLSTCAQGKISVALYRLDELEGQPIGHFNGTCIDDQDITIDNYEFTTDYLENATCGEKVVEETLVSHLLKSNCLITHQPDWGSLQIQYRGRQIDREKLLRYLVSFRHHNEFHEQCVERIFNDLLRFCQPEKLSVYARYTRRGGLDINPWRSNSDFVPSTTRLVRQ"
recorded_value = 7.06

[[record]]
residue_sequence = "MRILLSNDDGVHAPGIQTLAKALREFADVQVVAPDRNRSGASNSLTLESSLRTFTFENGDIAVQMGTPTDCVYLGVNALMRPRPDIVVSGINAGPNLGDDVIYSGTVAAAMEGRHLGFPALAVSLDGHKHYDTAAAVTCSILRALCKEPLRTGRILNINVPDLPLDQIKGIRVTRCGTRHPADQVIPQQDPRGNTLYWIGPPGGKCDAGPGTDFAAVDEGYVSITPLHVDLTAHSAQDVVSDWLNSVGVGTQW [P0A840]"
recorded_value = 5.84

[[record]]
residue_sequence = "MEFAFYICGLIAILATLRVITHTNPVHALLYLIISLLAISGVFFSLGAYFAGALEIIVYAGAIMVLFVFVVMMLNLGGSEIEQERQWLKPQVWIGPAILSAIMLVVIVYAILGVNDQGIDGTPISAKAVGITLFGPYVLAVELASMLLLAGLVVAFHVGREERAGEVLSNRKDDSAKRKTEEHA [P0AFE0]"
recorded_value = 11.5


---

assay: total protein half-life in vivo (active degradation + dilution); higher = more stable protein; settings: wild type E. coli NCM3722; growth: N-lim chemostat; doubling time 6 h
REPORTED_PROPERTY: total protein half-life in vivo

[[record]]
residue_sequence = "MKPGCTLFFLLCSALTVTTEAHAQTPDTATTAPYLLAGAPTFDLSISQFREDFNSQNPSLPLNEFRAIDSSPDKANLTRAASKINENLYASTALERGTLKIKSIQMTWLPIQGPEQKAAKAKAQEYMAAVIRTLTPLMTKTQSQKKLQSLLTAGKNKRYYTETEGALRYVVADNGEKGLTFAVEPIKLALSESLEGLNK"
recorded_value = "4.14 h"

[[record]]
residue_sequence = "MPLLKLWAGSLVMLAAVSLPLQAASPVKVGSKIDTEGALLGNIILQVLESHGVPTVNKVQLGTTPVVRGAITSGELDIYPEYTGNGAFFFKDENDAAWKNAQQGYEKVKKLDSEHNKLIWLTPAPANNTWTIAVRQDVAEKNKLTSLADLSRYLQEGGTFKLAASAEFIERADALPAFEKAYGFKLGQDQLLSLAGGDTAVTIKAAAQQTSGVNAAMAYGTDGPVAALGLQTLSDPQGVQPIYAPAPVVRESVLREYPQMAQWLQPVFASLDAKTLQQLNASIAVEGLDAKKVAADYLKQKGWTK"
recorded_value = "5.95 h"

[[record]]
residue_sequence = "MQKIVIVANGAPYGSESLFNSLRLAIALREQESNLDLRLFLMSDAVTAGLRGQKPGEGYNIQQMLEILTAQNVPVKLCKTCTDGRGISTLPLIDGVEIGTLVELAQWTLSADKVLTF [P0AB52]"
recorded_value = "5.55 h"

[[record]]
residue_sequence = "MIRNVLLAFMICSGMTLLGGCSSVMSHTGGKEGTYPGTRASATMIGDDETNWGTKSLAILDMPFTAVMDTLLLPWDVFRKDSSVRSRVEKSEANAQATNAVIPPARMPDN [P0ADM4]"
recorded_value = "5.84 h"

